Overview of reported ratio to parent across a group of variants:
B1: H2-Kb / Ed9 (parent complex)
chain 1: AQSVTQPDARVTVSEGASLQLRCKYSYFGTPYLFWYVQYPRQGLQLLLKYYPGDPVVQGVNGFEAEFSKSNSSFHLRKASVHWSDWAVYFCAVSITGGYKVVFGSGTRLLVSP
chain 2: DSGVVQSPRHIIKEKGGRSVLTCIPISGHSNVVWYQQTLGKELKFLIQHYEKVERDKGFLPSRFSVQQFDDYHSEMNMSALELEDSAMYFCASSPRQSDYTFGSGTRLLVI
chain 3: not shown
chain 4: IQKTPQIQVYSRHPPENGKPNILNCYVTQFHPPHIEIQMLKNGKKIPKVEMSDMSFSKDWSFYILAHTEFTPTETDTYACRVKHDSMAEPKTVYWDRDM
chain 5: SIINFEKL

Variants of: B1
method.description: % of reporter cells activated (NFAT-GFP), raw; note: test concentration or dose not given here
Field format: numeric only.

// known answers, use as guide
- mutation.spec: "chain 5 L8S"
  ratio to parent: 0.899
- mutation.spec: "chain 5 I3S"
  ratio to parent: 1.01
- mutation.spec: "chain 5 F5I"
  ratio to parent: 1.14

Input line: I would be grateful if you could share the reported ratio to parent for chain 5 E6R .
Output line: 0.329

Input line: I would be grateful if you could share the reported ratio to parent for chain 5 L8E .
Output line: 0.892

Input line: I would be grateful if you could share the reported ratio to parent for chain 5 I3W .
Output line: 0.753

Input line: I would be grateful if you could share the reported ratio to parent for chain 5 F5H .
Output line: 1.29
